study_target: c-kit (Homo sapiens, UniProt P10721)
Construct: MO7e (human megakaryocytic leukemia cell line) which had been arrested for 20 hr; endogenous in cells; host or cells: MO7e human megakaryocytic leukemia cell line
Sequence (P10721 26-976): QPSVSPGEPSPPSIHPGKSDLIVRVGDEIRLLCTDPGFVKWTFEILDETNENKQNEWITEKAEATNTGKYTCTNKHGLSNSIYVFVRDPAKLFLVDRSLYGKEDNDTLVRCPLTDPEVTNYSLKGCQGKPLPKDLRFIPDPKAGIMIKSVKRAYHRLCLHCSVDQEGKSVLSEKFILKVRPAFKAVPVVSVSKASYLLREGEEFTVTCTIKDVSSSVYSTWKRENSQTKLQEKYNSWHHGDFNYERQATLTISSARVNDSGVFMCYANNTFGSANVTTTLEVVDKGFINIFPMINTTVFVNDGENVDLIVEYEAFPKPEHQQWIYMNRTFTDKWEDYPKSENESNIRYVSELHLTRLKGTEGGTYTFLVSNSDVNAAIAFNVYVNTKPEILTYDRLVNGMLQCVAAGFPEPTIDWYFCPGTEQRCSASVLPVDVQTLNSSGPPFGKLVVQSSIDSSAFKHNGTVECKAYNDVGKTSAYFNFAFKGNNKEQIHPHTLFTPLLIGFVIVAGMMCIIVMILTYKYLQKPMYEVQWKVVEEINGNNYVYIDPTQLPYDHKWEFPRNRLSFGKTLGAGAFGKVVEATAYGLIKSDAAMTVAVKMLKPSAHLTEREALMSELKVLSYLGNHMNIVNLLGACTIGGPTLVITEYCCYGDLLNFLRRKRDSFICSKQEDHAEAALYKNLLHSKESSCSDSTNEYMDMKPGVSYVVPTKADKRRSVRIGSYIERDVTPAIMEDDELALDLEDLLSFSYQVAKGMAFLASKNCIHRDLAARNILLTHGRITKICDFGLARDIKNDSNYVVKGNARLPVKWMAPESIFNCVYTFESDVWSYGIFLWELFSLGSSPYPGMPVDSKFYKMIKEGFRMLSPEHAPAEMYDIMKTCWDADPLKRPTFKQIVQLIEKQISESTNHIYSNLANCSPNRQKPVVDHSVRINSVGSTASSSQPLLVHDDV
test_name: Inhibitory activity against c-kit autophosphorylation (MO7e cells, h-SCF)
Format: cell-based
setup_conditions: MO7e cells, h-SCF stimulation; read-out: c-kit IC50

compound: COc1cc2nccc(Oc3ccc(N(C)CCOc4ccc(F)cc4)cc3)c2cc1OC [Example 867]
IC50, nM: 191

compound: COc1cccc(C(=O)NC(=S)Nc2ccc(Oc3ccnc4cc(OC)c(OC)cc34)c(Cl)c2)c1 [Example 950]
IC50, nM: 224

compound: COc1cc2nccc(Oc3ccc(NCCOc4ccc(C)cc4)cc3C)c2cc1OC [Example 879]
IC50, nM: 48

compound: COc1cc2ncnc(Oc3ccc(NC(=S)NC(=O)c4ccccc4C)cc3)c2cc1OC [Example 927]
IC50, nM: 623

compound: COc1cc2nccc(Oc3ccc(NC(=S)NC(=O)c4ccc(F)cc4)cc3)c2cc1OC [Example 961]
IC50, nM: 740

compound: COc1cc2nccc(Oc3ccc(NC(=S)NC(=O)c4cccc(C)c4)cc3F)c2cc1OC [Example 941]
IC50, nM: 145

compound: COc1cc2nccc(Oc3ccc(NC(=S)NC(=O)c4ccc([N+](=O)[O-])cc4)cc3C)c2cc1OC [Example 1108]
IC50, nM: 962

compound: COc1cc2nccc(Oc3ccc(SCCCCOc4cccc(C)c4)cc3)c2cc1OC [Example 844]
IC50, nM: 450

compound: COc1cc2nccc(Oc3ccc(NC(=S)NC(=O)c4cccc(Cl)c4)cc3)c2cc1OC [Example 932]
IC50, nM: 208

compound: COc1cc2nccc(Oc3ccc(NC(=S)NC(=O)CCc4ccccc4C)cc3F)c2cc1OC [Example 1134]
IC50, nM: 169

compound: COc1cc2nccc(Oc3ccc(NC(=S)NC(=O)CCc4ccccc4)c(F)c3)c2cc1OC [Example 1026]
IC50, nM: 652

compound: COc1cc2nccc(Oc3ccc(NC(=S)NC(=O)Cc4ccccc4)cc3)c2cc1OC [Example 1022]
IC50, nM: 202

compound: COc1cccc(C(=O)NC(=S)Nc2ccc(Oc3ncnc4cc(OC)c(OC)cc34)cc2)c1 [Example 956]
IC50, nM: 326

compound: CCN(CC)C(=O)NC(=S)Nc1ccc(Oc2ccnc3cc(OC)c(OC)cc23)cc1 [Example 1041]
IC50, nM: 98

compound: COc1cc2nccc(Oc3ccc(SCCOc4cccc(F)c4)cc3)c2cc1OC [Example 821]
IC50, nM: 184

compound: COc1cc2nccc(Oc3ccc(NC(=S)NC(=O)c4ccccc4I)cc3F)c2cc1OC [Example 915]
IC50, nM: 240

compound: CCCC1CCC(C(=O)NC(=S)Nc2ccc(Oc3ncnc4cc(OC)c(OC)cc34)cc2)CC1 (centres unmarked) [Example 1197]
IC50, nM: 219

* * *

study_target: c-kit (Homo sapiens, UniProt P10721)
Construct: MO7e (human megakaryocytic leukemia cell line) which had been arrested for 20 hr; endogenous in cells; host or cells: MO7e human megakaryocytic leukemia cell line
test_name: Inhibitory activity against c-kit autophosphorylation (MO7e cells, h-SCF)
Format: cell-based
setup_conditions: Mo7e, figure within parentheses in −( ) or >1000( ); at 1000 nM

compound: CCCCCOc1ccc(C(=O)NC(=S)Nc2ccc(Oc3ccnc4cc(OC)c(OC)cc34)cc2)cc1 [Example 753]
study_target: c-kit (Homo sapiens, UniProt P10721)
inhibition at 1 µM / %: 9
--
compound: COc1cc2ncnc(Oc3ccc(NC(=S)NCCCN4CCN(C)CC4)cc3)c2cc1OC [Example 536]
study_target: c-kit (Homo sapiens, UniProt P10721)
inhibition at 1 µM / %: 7
--
compound: COc1cc2ncnc(Oc3ccc(OCC(=O)N4CCC(Cc5ccccc5)CC4)cc3)c2cc1OC [Example 804]
study_target: c-kit (Homo sapiens, UniProt P10721)
inhibition at 1 µM / %: 20
--
compound: C#CCC(CC)OC(=O)Nc1ccc(Oc2ncnc3cc(OC)c(OC)cc23)cc1OC (centres unmarked) [Example 502]
study_target: c-kit (Homo sapiens, UniProt P10721)
inhibition at 1 µM / %: 23
--
compound: COc1cc2nccc(Oc3ccc(NC(=O)NC4CCN(Cc5ccccc5C)CC4)cc3)c2cc1OC [Example 568]
study_target: c-kit (Homo sapiens, UniProt P10721)
inhibition at 1 µM / %: 31
--
compound: CCCCN(CCCC)CCCNC(=S)Nc1cc(C)c(Oc2ccnc3cc(OC)c(OC)cc23)cc1C [Example 552]
study_target: c-kit (Homo sapiens, UniProt P10721)
inhibition at 1 µM / %: 28
--
compound: CCN(CC)CCCNC(=S)Nc1ccc(Oc2ncnc3cc(OC)c(OC)cc23)cc1 [Example 531]
study_target: c-kit (Homo sapiens, UniProt P10721)
inhibition at 1 µM / %: 31
--
compound: COc1cc2ncnc(Oc3ccc(NC(=O)NC4CCN(CC5CCCCC5)C4)c([N+](=O)[O-])c3)c2cc1OC (centres unmarked) [Example 587]
study_target: c-kit (Homo sapiens, UniProt P10721)
inhibition at 1 µM / %: 16

* * *

Listed next: entries and their corresponding pIC50.
study_target: c-kit (Homo sapiens, UniProt P10721)
Construct: MO7e (human megakaryocytic leukemia cell line) which had been arrested for 20 hr; endogenous in cells; host or cells: MO7e human megakaryocytic leukemia cell line
test_name: Inhibitory activity against c-kit autophosphorylation (MO7e cells, h-SCF)
Type: cell-based
setup_conditions: MO7e cells, h-SCF 50 ng/ml; read-out: c-kit IC50
pIC50: −log10 of the molar value.
property_name: pIC50

compound: COc1cc2nccc(Oc3ccc(NC(=O)OCCN4CCOCC4)cc3)c2cc1OC [Example 306]
censor_symbol: =
measured_number: 7.14

compound: COc1cc2nccc(Oc3ccc(NC(=O)OCC4CCCCCC4)c(C)c3C)c2cc1OC [Example 350]
censor_symbol: =
measured_number: 6.62

compound: COc1ccccc1COC(=O)Nc1ccc(Oc2ncnc3cc(OC)c(OC)cc23)cc1 [Example 315]
censor_symbol: =
measured_number: 7.09

compound: COc1ccc(COC(=O)Nc2cc(C)c(Oc3ccnc4cc(OC)c(OC)cc34)cc2C)cc1OC [Example 64]
censor_symbol: =
measured_number: 6.37

compound: COc1cc2nccc(Oc3ccc(NC(=O)OCCc4cccc(C(F)(F)F)c4)cc3)c2cc1OC [Example 82]
censor_symbol: =
measured_number: 6.75

compound: COc1cc2nccc(Oc3ccc(NC(=O)OCCN4CCOCC4)c(C)c3C)c2cc1OC [Example 308]
censor_symbol: =
measured_number: 7.00

compound: COc1cc2ncnc(Oc3ccc(NC(=O)OCCCOc4cccc(F)c4)cc3)c2cc1OC [Example 150]
censor_symbol: =
measured_number: 7.42

compound: COc1ccc(COC(=O)Nc2ccc(Oc3ccnc4cc(OC)c(OC)cc34)cc2)cc1OC [Example 62]
censor_symbol: =
measured_number: 7.15

compound: COc1cc2nccc(Oc3ccc(NC(=O)Oc4ccccc4C)cc3)c2cc1OC [Example 223]
censor_symbol: =
measured_number: 7.00

compound: CCCCC(CC)OC(=O)Nc1ccc(Oc2ccnc3cc(OC)c(OC)cc23)c(C)c1C (centres unmarked) [Example 331]
censor_symbol: =
measured_number: 6.42

compound: COc1cc2ncnc(Oc3ccc(NC(=O)OCCCOc4ccc(Cl)cc4)cc3)c2cc1OC [Example 30]
censor_symbol: >
measured_number: 7.52

compound: COc1cc2nccc(Oc3ccc(NC(=O)OCc4ccccc4C)c(C)c3C)c2cc1OC [Example 232]
censor_symbol: =
measured_number: 7.38

compound: COc1cc2nccc(Oc3ccc(NC(=O)OCCCOc4ccc(Cl)cc4)cc3)c2cc1OC [Example 27]
censor_symbol: =
measured_number: 7.12

compound: COc1cc2ncnc(Oc3ccc(NC(=O)OCCCOc4ccccc4F)c(C)c3C)c2cc1OC [Example 146]
censor_symbol: =
measured_number: 7.49

compound: COc1cc2ncnc(Oc3ccc(NC(=O)OC(C)c4cccc(F)c4)cc3)c2cc1OC (centres unmarked) [Example 100]
censor_symbol: =
measured_number: 6.09

compound: CCCC(CC)OC(=O)Nc1ccc(Oc2ncnc3cc(OC)c(OC)cc23)cc1 (centres unmarked) [Example 337]
censor_symbol: =
measured_number: 6.70

compound: COc1cc2ncnc(Oc3ccc(NC(=O)OC(C)c4ccc(F)cc4)cc3)c2cc1OC (centres unmarked) [Example 105]
censor_symbol: =
measured_number: 6.60

* * *

Reported inhibition at 1 µM values follow for various compounds
study_target: c-kit (Homo sapiens, UniProt P10721)
Construct: MO7e (human megakaryocytic leukemia cell line) which had been arrested for 20 hr; endogenous in cells; host or cells: MO7e human megakaryocytic leukemia cell line
test_name: Inhibitory activity against c-kit autophosphorylation (MO7e cells, h-SCF)
Type: cell-based
setup_conditions: Mo7e, figure in parentheses in −( ); at 1000 nM

compound: COc1ccc(C(=O)NC(=S)Nc2ccc(Oc3ccnc4cc(OC)c(OC)cc34)cc2C)cc1
inhibition at 1 µM / %: 25

compound: COc1cc2nccc(Oc3ccc(NC(=S)NC(=O)CCC4CCCC4)c(Cl)c3)c2cc1OC
inhibition at 1 µM / %: 0

compound: COc1cc2nccc(Oc3ccc(NC(=S)NC(=O)c4ccccc4F)cc3Cl)c2cc1OC
inhibition at 1 µM / %: 42

compound: COc1cc2nccc(Oc3ccc(NC(=S)NC(=O)c4ccc(Br)cc4)cc3F)c2cc1OC
inhibition at 1 µM / %: 0

compound: COc1cc2nccc(Oc3ccc(NC(=S)NC(=O)C4CC4)cc3Cl)c2cc1OC
inhibition at 1 µM / %: 21

compound: CCCCc1ccc(C(=O)NC(=S)Nc2ccc(Oc3ccnc4cc(OC)c(OC)cc34)c(F)c2)cc1
inhibition at 1 µM / %: 45

compound: COc1cc2ncnc(Oc3ccc(NC(=O)OC(C)c4ccc(C)cc4)c(Cl)c3)c2cc1OC (stereo not drawn)
inhibition at 1 µM / %: 7

compound: COc1cc2nccc(Oc3ccc(NC(=S)NC(=O)c4ccc(C)cc4)c(C)c3C)c2cc1OC
inhibition at 1 µM / %: 0

compound: COc1cc2ncnc(Oc3ccc(SCCCOc4cccc(C)c4)cc3)c2cc1OC
inhibition at 1 µM / %: 33
